Hey, just so you know, these numbers are from patent US10800807B2.

Target: mouse glutathione transferase-tagged FXR-LBD (Mus musculus, UniProt Q60641)
Construct: mouse glutathione transferase-tagged FXR-LBD (generated in-house)
Sequence (Q60641 264-488 limits assumed): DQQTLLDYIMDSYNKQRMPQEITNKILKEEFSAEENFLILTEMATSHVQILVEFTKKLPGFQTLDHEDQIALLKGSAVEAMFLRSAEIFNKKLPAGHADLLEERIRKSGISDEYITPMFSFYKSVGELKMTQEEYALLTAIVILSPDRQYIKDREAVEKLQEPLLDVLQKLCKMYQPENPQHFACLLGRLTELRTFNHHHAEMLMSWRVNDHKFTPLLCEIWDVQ
Assay: FXR AlphaScreen coactivator recruitment assay (mouse)
Settings: mouse FXR-LBD, value in parentheses; read-out: (mFXR) EC50
EC50 less than 8 µM is fulfilled; EC50 greater than or equal to 8 µM is not fulfilled.

Take a look at these entries with their results.
- CC[C@H]1[C@@H](O)C2C3CC[C@H]([C@H](C)C[C@@H](CO)C(=O)O)[C@@]3(C)[C@@H](O)CC2[C@@]2(C)CC[C@@H](O)C[C@@H]12 (stereo partly drawn) [Compound 4]: not fulfilled
- CC[C@H]1[C@@H](O)C2C3CC[C@H]([C@H](C)CC(=O)NCCOS(=O)(=O)[O-])[C@@]3(C)CCC2[C@@]2(C)CC[C@@H](O)C[C@@H]12.[Na+] (stereo partly drawn) [Compound 21]: fulfilled
- CC[C@H]1[C@@H](O)C2C3CC[C@H]([C@H](C)CCc4nn[nH]n4)[C@@]3(C)[C@@H](O)CC2[C@@]2(C)CC[C@@H](O)C[C@@H]12 (stereo partly drawn) [Compound 12]: not fulfilled
- CC[C@H]1[C@@H](O)C2C3CC[C@H]([C@H](C)CCc4noc(=O)[nH]4)[C@@]3(C)CCC2[C@@]2(C)CC[C@@H](O)C[C@@H]12 (stereo partly drawn) [Compound 16]: fulfilled
- CC[C@H]1[C@@H](O)[C@@H]2[C@H](C[C@H](O)[C@]3(C)[C@@H]([C@H](C)C[C@@H](F)C(=O)O)CC[C@@H]23)[C@@]2(C)CC[C@@H](O)C[C@@H]12 [Compound 9]: not fulfilled
- CC[C@H]1[C@@H](O)[C@@H]2[C@H](C[C@H](O)[C@]3(C)[C@@H]([C@H](C)C[C@@H](O)C(=O)O)CC[C@@H]23)[C@@]2(C)CC[C@@H](O)C[C@@H]12 [Compound 2]: not fulfilled

Could you please tell me whether EC50 recorded for CC[C@H]1[C@@H](O)C2C3CC[C@H]([C@H](C)CCc4nn[nH]n4)[C@@]3(C)CCC2[C@@]2(C)CC[C@@H](O)C[C@@H]12 (stereo partly drawn) [Compound 15] is less than 8 µM?
fulfilled

Here's an entry: CC[C@H]1[C@@H](O)C2C3CC[C@H]([C@H](C)CC(F)(F)C(=O)O)[C@@]3(C)CCC2[C@@]2(C)CC[C@@H](O)C[C@@H]12 (stereo partly drawn) [Compound 10] . Is its EC50 below 8 µM?
fulfilled

----------
Assay: Water solubility
Format: physicochemical
Conditions: simulated gastric fluid, thermodynamic from solid, 0.1 M HCl, pH 1.00, 25° C., read-out: Ws
Below is a list of entries, each paired with its recorded solubility thermodynamic at 1 week value.

• CC[C@H]1[C@@H](O)[C@@H]2[C@H](C[C@H](O)[C@]3(C)[C@@H]([C@H](C)C[C@@H](F)C(=O)O)CC[C@@H]23)[C@@]2(C)CC[C@@H](O)C[C@@H]12 = 469 µM
• CC[C@H]1[C@@H](O)C2C3CC[C@H]([C@H](C)CCc4nn[nH]n4)[C@@]3(C)CCC2[C@@]2(C)CC[C@@H](O)C[C@@H]12 (stereo partly drawn) = 132 µM

Name the reported solubility thermodynamic at 1 week value associated with the compound CC[C@H]1[C@@H](O)C2C3CC[C@H]([C@H](C)CCC(=O)O)[C@@]3(C)CCC2[C@@]2(C)CC[C@@H](O)C[C@@H]12 (stereo partly drawn) [Ref. Cmpd. B, reference compound]
9 µM

Would you kindly share the measured solubility thermodynamic at 1 week for CC[C@H]1[C@@H](O)C2C3CC[C@H]([C@H](C)CC(F)(F)C(=O)O)[C@@]3(C)[C@@H](O)CC2[C@@]2(C)CC[C@@H](O)C[C@@H]12 (stereo partly drawn) ?
225 µM

Param item = CC[C@H]1[C@@H](O)C2C3CC[C@H]([C@H](C)CC(F)(F)C(=O)O)[C@@]3(C)CCC2[C@@]2(C)CC[C@@H](O)C[C@@H]12 (stereo partly drawn) ; retrieve measured solubility thermodynamic at 1 week.
16 µM

// query solubility thermodynamic at 1 week value for entry `CC[C@H]1[C@@H](O)[C@@H]2[C@H](C[C@H](O)[C@]3(C)[C@@H]([C@H](C)C[C@H](F)C(=O)O)CC[C@@H]23)[C@@]2(C)CC[C@@H](O)C[C@@H]12`
971 µM

What solubility thermodynamic at 1 week value was documented for this compound, CC[C@H]1[C@@H](O)C2C3CC[C@H]([C@H](C)CC(=O)NCCO)[C@@]3(C)CCC2[C@@]2(C)CC[C@@H](O)C[C@@H]12 (stereo partly drawn) ?
2150 µM

Could you share which solubility thermodynamic at 1 week value was measured for C[C@H](CCC(=O)O)[C@H]1CC[C@H]2[C@@H]3[C@@H](O)C[C@@H]4C[C@H](O)CC[C@]4(C)[C@H]3CC[C@]12C [UDCA, ursodeoxycholic acid, reference compound] ?
7 µM

Which measured solubility thermodynamic at 1 week value corresponds to CC[C@H]1[C@@H](O)C2C3CC[C@H]([C@H](C)CCc4nn[nH]n4)[C@@]3(C)[C@@H](O)CC2[C@@]2(C)CC[C@@H](O)C[C@@H]12 (stereo partly drawn) ?
517 µM

----------
# Lookup of reported LogPA− keyed by entry
Assay: Lipophilicity, 1-octanol/water partition coefficient (shake-flask)
Format: physicochemical
Details: pH 8.00, ionized BA

* C[C@H](CCC(=O)NCCS(=O)(=O)O)[C@H]1CC[C@H]2[C@@H]3[C@H](O)C[C@@H]4C[C@H](O)CC[C@]4(C)[C@H]3C[C@H](O)[C@]12C [TCA, reference compound] | −0.5
* CC[C@@H]1C2C[C@H](O)CC[C@]2(C)C2CC[C@@]3(C)C(CC[C@@H]3[C@H](C)Cc3nc(=O)o[nH]3)C2[C@@H]1O (stereo partly drawn) | 1.9

Okay, now this molecule:
Which measured LogPA− value corresponds to CC[C@H]1[C@@H](O)C2C3CC[C@H]([C@H](C)CC(F)(F)C(=O)O)[C@@]3(C)CCC2[C@@]2(C)CC[C@@H](O)C[C@@H]12 (stereo partly drawn) ?
1.4

----------
Catalogue of pEC50 readings, one per entry.
Target: UniProtKB Q80SS6
Sequence (Q80SS6 1-329): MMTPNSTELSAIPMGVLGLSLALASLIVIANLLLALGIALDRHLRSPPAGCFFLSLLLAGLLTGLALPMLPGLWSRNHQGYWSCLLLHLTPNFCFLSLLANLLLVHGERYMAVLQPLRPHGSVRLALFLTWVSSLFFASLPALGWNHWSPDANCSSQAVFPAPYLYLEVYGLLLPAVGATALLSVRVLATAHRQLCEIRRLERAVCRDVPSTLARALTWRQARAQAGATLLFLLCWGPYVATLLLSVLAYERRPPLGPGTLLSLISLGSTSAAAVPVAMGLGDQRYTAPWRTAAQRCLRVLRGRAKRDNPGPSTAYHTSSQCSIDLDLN
Assay: TGR5 activity: cAMP in mTGR5 CHO-Pi10 clone 4 cells
Details: mTGR5 CHO cells, value in parentheses
Please note pEC50 is a logarithmic value: minus log10 of concentration in mol/L. Answer with that number alone.

Solved cases (2 shown):
* CC[C@H]1[C@@H](O)C2C3CC[C@H]([C@H](C)CCc4nnc(NS(C)(=O)=O)o4)[C@@]3(C)CCC2[C@@]2(C)CC[C@@H](O)C[C@@H]12 (stereo partly drawn) [Compound 23] | 5.85
* CC[C@H]1[C@@H](O)[C@@H]2[C@H](C[C@H](O)[C@]3(C)[C@@H]([C@H](C)C[C@@H](CF)C(=O)O)CC[C@@H]23)[C@@]2(C)CC[C@@H](O)C[C@@H]12 [Compound 6] | 5.42

Now for another entry.
Dear colleague, I am looking for the recorded pEC50 of the following molecule: CC[C@@H]1C2C[C@H](O)CC[C@]2(C)C2CC[C@@]3(C)C(CC[C@@H]3[C@H](C)Cc3nn[nH]n3)C2[C@@H]1O (stereo partly drawn) [Compound 13]
5.64

----------
Target: TGR5 (Homo sapiens, UniProt Q8TDU6)
Sequence (Q8TDU6 whole entry): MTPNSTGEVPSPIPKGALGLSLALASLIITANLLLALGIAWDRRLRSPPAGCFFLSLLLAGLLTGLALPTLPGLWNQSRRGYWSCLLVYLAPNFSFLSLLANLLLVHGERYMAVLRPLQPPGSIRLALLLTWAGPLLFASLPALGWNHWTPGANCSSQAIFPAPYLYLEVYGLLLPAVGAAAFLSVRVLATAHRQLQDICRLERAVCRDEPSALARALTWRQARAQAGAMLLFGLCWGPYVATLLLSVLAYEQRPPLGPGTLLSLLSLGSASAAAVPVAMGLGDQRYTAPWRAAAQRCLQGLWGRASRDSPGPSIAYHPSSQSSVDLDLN
Assay: TGR5 activity: cAMP in hTGR5 CHO-k1 cells
Format: cell-based
Set-up: expressed in transfected cells; host or cells: CHO-k1
Conditions: 0.5 h; hTGR5 CHO cells; Ref. LCA 100% at 10 μM; read-out: hTGR5 CHO Efficacy
assay_readout: Emax (%)
Express the result in % but write the number alone.

Example results:
* CC[C@H]1[C@@H](O)C2C3CC[C@H]([C@H](C)CCc4nn[nH]n4)[C@@]3(C)[C@@H](O)CC2[C@@]2(C)CC[C@@H](O)C[C@@H]12 (stereo partly drawn) [Compound 12] | 101
* CC[C@H]1[C@@H](O)C2C3CC[C@H]([C@H](C)CCc4noc(=O)[nH]4)[C@@]3(C)CCC2[C@@]2(C)CC[C@@H](O)C[C@@H]12 (stereo partly drawn) [Compound 16] | 99

Next:
So what's the measured Emax for this one? CC[C@H]1[C@@H](O)[C@@H]2[C@H](C[C@H](O)[C@]3(C)[C@@H]([C@H](C)C[C@@H](F)C(=O)O)CC[C@@H]23)[C@@]2(C)CC[C@@H](O)C[C@@H]12 [Compound 9]
98
